# settings: 313.15 K; 100.7 kPa; Liquid; Frequency=3 MHz; Sing-around technique in a fixed-path interferometer
± gives the expanded uncertainty stated by the source.
speed of sound values, listed per item

# molecule, speed of sound
records = [
    ("CCCCCCCC[n+]1ccn(C)c1.F[P-](F)(F)(F)(F)F [1-octyl-3-methylimidazolium hexafluorophosphate]", "1365.8 ± 2.9 m/s"),
    ("CCCCn1cc[n+](C)c1.F[P-](F)(F)(F)(F)F [1-butyl-3-methylimidazolium hexafluorophosphate]", "1406.7 ± 2.9 m/s"),
    ("C1CCOC1 [tetrahydrofuran]", "1209.2 ± 2.2 m/s"),
    ("CCCCCCn1cc[n+](C)c1.F[P-](F)(F)(F)(F)F [1-hexyl-3-methylimidazolium hexafluorophosphate]", "1386.9 ± 2.9 m/s"),
]

* * *

Catalogue of speed of sound readings, one per entry.
# settings: 303.15 K; 100.7 kPa; Liquid; Frequency=3 MHz; Sing-around technique in a fixed-path interferometer

# molecule, speed of sound / m/s
records = [
    ("C1CCOC1 [tetrahydrofuran]", 1256.8),
    ("CCCCn1cc[n+](C)c1.F[P-](F)(F)(F)(F)F [1-butyl-3-methylimidazolium hexafluorophosphate]", 1430.2),
    ("CCCCCCCC[n+]1ccn(C)c1.F[P-](F)(F)(F)(F)F [1-octyl-3-methylimidazolium hexafluorophosphate]", 1392.4),
    ("CCCCCCn1cc[n+](C)c1.F[P-](F)(F)(F)(F)F [1-hexyl-3-methylimidazolium hexafluorophosphate]", 1411.5),
]

* * *

# settings: 293.15 K; 100.7 kPa; Liquid; Vibrating tube method
Consider the following compounds and their measured mass density readings.
observation type: mass density (kg/m3)

# compound, readout number
data = [
    ("CCCCCCn1cc[n+](C)c1.F[P-](F)(F)(F)(F)F [1-hexyl-3-methylimidazolium hexafluorophosphate]", 1296.72),
    ("C1CCOC1 [tetrahydrofuran]", 888.766),
    ("CCCCCCCC[n+]1ccn(C)c1.F[P-](F)(F)(F)(F)F [1-octyl-3-methylimidazolium hexafluorophosphate]", 1238.77),
    ("CCCCn1cc[n+](C)c1.F[P-](F)(F)(F)(F)F [1-butyl-3-methylimidazolium hexafluorophosphate]", 1370.41),
]

* * *

The following compounds are listed with their measured refractive index values.
# assay overview: refractive index (Na D-line) (dimensionless)
# settings: 293.15 K; 100.7 kPa; Liquid; Standard Abbe refractometry
observation type: refractive index

# compound, readout number
records = [
    ("C1CCOC1 [tetrahydrofuran]", 1.40696),
    ("CCCCCCCC[n+]1ccn(C)c1.F[P-](F)(F)(F)(F)F [1-octyl-3-methylimidazolium hexafluorophosphate]", 1.42441),
    ("CCCCCCn1cc[n+](C)c1.F[P-](F)(F)(F)(F)F [1-hexyl-3-methylimidazolium hexafluorophosphate]", 1.41958),
    ("CCCCn1cc[n+](C)c1.F[P-](F)(F)(F)(F)F [1-butyl-3-methylimidazolium hexafluorophosphate]", 1.41068),
]

* * *

# settings: 323.15 K; 100.7 kPa; Liquid; Vibrating tube method
Collected mass density values appear next to each entry.

# molecule, mass density (kg/m3)
measured = [
    ("C1CCOC1 [tetrahydrofuran]", 855.456),
    ("CCCCCCn1cc[n+](C)c1.F[P-](F)(F)(F)(F)F [1-hexyl-3-methylimidazolium hexafluorophosphate]", 1272.45),
    ("CCCCn1cc[n+](C)c1.F[P-](F)(F)(F)(F)F [1-butyl-3-methylimidazolium hexafluorophosphate]", 1345.57),
    ("CCCCCCCC[n+]1ccn(C)c1.F[P-](F)(F)(F)(F)F [1-octyl-3-methylimidazolium hexafluorophosphate]", 1215.42),
]

* * *

# assay overview: refractive index (Na D-line) (dimensionless)
# settings: 303.15 K; 100.7 kPa; Liquid; Standard Abbe refractometry
± gives the expanded uncertainty stated by the source.
# refractive index values compiled below

# compound, refractive index
records = [
    ("CCCCCCCC[n+]1ccn(C)c1.F[P-](F)(F)(F)(F)F [1-octyl-3-methylimidazolium hexafluorophosphate]", "1.42171 ± 0.0017"),
    ("C1CCOC1 [tetrahydrofuran]", "1.40157 ± 0.0016"),
    ("CCCCCCn1cc[n+](C)c1.F[P-](F)(F)(F)(F)F [1-hexyl-3-methylimidazolium hexafluorophosphate]", "1.41692 ± 0.0017"),
    ("CCCCn1cc[n+](C)c1.F[P-](F)(F)(F)(F)F [1-butyl-3-methylimidazolium hexafluorophosphate]", "1.40818 ± 0.0017"),
]

* * *

# settings: 318.15 K; 100.7 kPa; Liquid; Vibrating tube method
Quick reference for mass density among some molecules

# molecule, quantity unit, mass density
data = [
    ("CCCCCCCC[n+]1ccn(C)c1.F[P-](F)(F)(F)(F)F [1-octyl-3-methylimidazolium hexafluorophosphate]", "kg/m3", 1219.5),
    ("C1CCOC1 [tetrahydrofuran]", "kg/m3", 861.106),
    ("CCCCCCn1cc[n+](C)c1.F[P-](F)(F)(F)(F)F [1-hexyl-3-methylimidazolium hexafluorophosphate]", "kg/m3", 1276.37),
    ("CCCCn1cc[n+](C)c1.F[P-](F)(F)(F)(F)F [1-butyl-3-methylimidazolium hexafluorophosphate]", "kg/m3", 1349.88),
]

* * *

# settings: 293.15 K; 100.7 kPa; Liquid; Frequency=3 MHz; Sing-around technique in a fixed-path interferometer
Collected speed of sound values appear next to each entry.

# compound, quantity unit, speed of sound
data = [
    ("CCCCCCCC[n+]1ccn(C)c1.F[P-](F)(F)(F)(F)F [1-octyl-3-methylimidazolium hexafluorophosphate]", "m/s", 1421.2),
    ("CCCCCCn1cc[n+](C)c1.F[P-](F)(F)(F)(F)F [1-hexyl-3-methylimidazolium hexafluorophosphate]", "m/s", 1437.7),
    ("CCCCn1cc[n+](C)c1.F[P-](F)(F)(F)(F)F [1-butyl-3-methylimidazolium hexafluorophosphate]", "m/s", 1454.6),
    ("C1CCOC1 [tetrahydrofuran]", "m/s", 1305),
]

* * *

# assay overview: refractive index (Na D-line) (dimensionless)
# settings: 318.15 K; 100.7 kPa; Liquid; Standard Abbe refractometry

# compound, refractive index
records = [
    ("CCCCn1cc[n+](C)c1.F[P-](F)(F)(F)(F)F [1-butyl-3-methylimidazolium hexafluorophosphate]", 1.40443),
    ("CCCCCCCC[n+]1ccn(C)c1.F[P-](F)(F)(F)(F)F [1-octyl-3-methylimidazolium hexafluorophosphate]", 1.4175),
    ("CCCCCCn1cc[n+](C)c1.F[P-](F)(F)(F)(F)F [1-hexyl-3-methylimidazolium hexafluorophosphate]", 1.41306),
    ("C1CCOC1 [tetrahydrofuran]", 1.39349),
]

* * *

# assay overview: refractive index (Na D-line) (dimensionless)
# settings: 313.15 K; 100.7 kPa; Liquid; Standard Abbe refractometry
Some compounds, each annotated with its measured refractive index.

# compound, refractive index
records = [
    ("C1CCOC1 [tetrahydrofuran]", 1.39623),
    ("CCCCCCCC[n+]1ccn(C)c1.F[P-](F)(F)(F)(F)F [1-octyl-3-methylimidazolium hexafluorophosphate]", 1.41888),
    ("CCCCn1cc[n+](C)c1.F[P-](F)(F)(F)(F)F [1-butyl-3-methylimidazolium hexafluorophosphate]", 1.40567),
    ("CCCCCCn1cc[n+](C)c1.F[P-](F)(F)(F)(F)F [1-hexyl-3-methylimidazolium hexafluorophosphate]", 1.41422),
]

* * *

# settings: 323.15 K; 100.7 kPa; Liquid; Frequency=3 MHz; Sing-around technique in a fixed-path interferometer
observation type: speed of sound (m/s)

# molecule, observation type, readout number
data = [
    ("CCCCCCn1cc[n+](C)c1.F[P-](F)(F)(F)(F)F [1-hexyl-3-methylimidazolium hexafluorophosphate]", "speed of sound", 1363.3),
    ("C1CCOC1 [tetrahydrofuran]", "speed of sound", 1162.3),
    ("CCCCCCCC[n+]1ccn(C)c1.F[P-](F)(F)(F)(F)F [1-octyl-3-methylimidazolium hexafluorophosphate]", "speed of sound", 1338),
    ("CCCCn1cc[n+](C)c1.F[P-](F)(F)(F)(F)F [1-butyl-3-methylimidazolium hexafluorophosphate]", "speed of sound", 1384.1),
]

* * *

// values below are reported refractive index
# assay overview: refractive index (Na D-line) (dimensionless)
# settings: 298.15 K; 100.7 kPa; Liquid; Standard Abbe refractometry

# molecule, refractive index
records = [
    ("CCCCCCn1cc[n+](C)c1.F[P-](F)(F)(F)(F)F [1-hexyl-3-methylimidazolium hexafluorophosphate]", 1.41832),
    ("CCCCCCCC[n+]1ccn(C)c1.F[P-](F)(F)(F)(F)F [1-octyl-3-methylimidazolium hexafluorophosphate]", 1.42312),
    ("C1CCOC1 [tetrahydrofuran]", 1.4042),
    ("CCCCn1cc[n+](C)c1.F[P-](F)(F)(F)(F)F [1-butyl-3-methylimidazolium hexafluorophosphate]", 1.40943),
]

Reference source for all entries: the NIST ThermoML archive (doi:10.1016/j.jct.2015.02.011)
